A collection of substances and their measured EC50
biological target: cardiomyocyte Gs-coupled receptors; test: cAMP production in neonatal cardiomyocytes (HTRF, Gs-coupled receptor activation); type: cell-based, rat; conditions: neonatal rat cardiomyocytes, 30 minutes; read-out: EC50 of cAMP production (this experiment, FIGS. 18A/18B)
metric.name: EC50 (nM)

YAEGTFISDYSIAMDKIHQQDFVNWLLAQKGKKNDWKHNITQ-OH [GIP, reference compound]; 9.1
Y(D-Ala)EGTFISDYSIAMDKIHQQDFVNWLLAQKPSSGAPPPS-NH2 [Compound 0601GIP3794]; 11.7

----------
biological target: cardiomyocyte Gs-coupled receptors; assay: cAMP production in neonatal cardiomyocytes (HTRF, Gs-coupled receptor activation); assay type: cell-based, rat; settings: neonatal rat cardiomyocytes; read-out: EC50 of cardiomyocyte Gs-coupled receptor activation (three independent experiments)
pEC50: −log10 of the molar value.
The following substances are listed with their measured pEC50 values.
metric.name: pEC50

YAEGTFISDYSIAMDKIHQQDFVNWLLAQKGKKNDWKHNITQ-OH [GIP, reference compound]; 7.81
Y(D-Ala)EGTFISDYSIAMDKIHQQDFVNWLLAQKPSSGAPPPS-NH2 [Compound 0601GIP3794]; 7.53
